Target: Na^+,K^+ -ATPase (Canis lupus familiaris)
Construct: from tissue; the cited Jorgensen 1974 method uses outer medulla of mammalian kidney (own knowledge)
Assay: displacement of the specific ^3H-ouabain binding from the purified Na^+,K^+-ATPase receptor
Settings: ^3H-ouabain displacement, purified Na^+,K^+-ATPase; read-out: Binding ^3 H-Ouab. Displacement log IC50 (converted)
Description: To test the affinity for the receptor site of the Na^+,K^+ -ATPase and the agonist or antagonist activity on the enzyme, the following tests were used: a) displacement of the specific ^3 H-ouabain binding from the Na^+,K^+ -ATPase receptor purified according to Jorghensen (Jorghensen P., BBA, 1974, 356, 36) and Erdmann (Erdmann E. et al., Arzneim. Forsh, 1984, 34, 1314);
PROPERTY: IC50 (nM)
Note: unit nM is implicit; provide only the numeric part.

So what does the record say about IC50 for `CC[C@@H](C/C=N/NC(=N)N)[C@@]1(C)CC[C@H]2[C@@H](CC[C@@H]3C[C@@H](O)CC[C@@]32C)C1=O` ? 398

* * *

Target: Na^+,K^+ -ATPase (Canis lupus familiaris, UniProt P50997)
Construct: from tissue; the cited Jorgensen 1974 method uses outer medulla of mammalian kidney (own knowledge)
Assay: displacement of the specific ^3H-ouabain binding from the purified Na^+,K^+-ATPase receptor
Conditions: ^3H-ouabain displacement, purified Na^+,K^+-ATPase; read-out: Binding ^3 H-Ouab. Displacement log IC50 (converted)
Listing: IC50 of selected compounds
Report only the number, with the unit nM understood.

# query: IC50 of entry `CC[C@H](/C=N/OCCN(C)C)[C@@]1(C)CC[C@H]2[C@@H](CC[C@@H]3C[C@@H](O)CC[C@@]32C)C1=O` 3980

Would you mind telling me what IC50 value was observed for `CC[C@@H](C/C=C/C=N/OCCN(C)C)[C@@]1(C)CC[C@H]2[C@@H](CC[C@@H]3C[C@@H](O)CC[C@@]32C)C1=O` ? 316

IC50 lookup needed for `CC[C@@H](/C=N/OCCN(C)C)[C@@]1(C)CC[C@H]2[C@@H](CC[C@@H]3C[C@@H](O)CC[C@@]32C)C1=O` , thanks. 501
